meta.source: PubChem BioAssay (NCI)

In this section, each of the compounds is paired with its reported TGI.
# Tested on: HCT-116 colon
# test name: NCI tumour cell line growth inhibition, 48 h

Known results for compounds:
[[record]]
compound = "O=C(/C=C/c1ccc(O)cc1)NCCc1ccc(O)cc1"
tested_target = "HCT-116 colon"
result_value = "> 12.5 µM"

[[record]]
compound = "O=C1CCC2(C=C(Br)C(=O)C(Br)=C2)O1"
tested_target = "HCT-116 colon"
result_value = "3.12 µM"

[[record]]
compound = "COc1ccc2[nH]c(Cl)c(/C=C3/C(=O)N(C)c4ccccc43)c2c1"
tested_target = "HCT-116 colon"
result_value = "> 100 µM"


Q: Give TGI for the following compound: "Cc1[nH]c(/C=C2\C(=O)Nc3ccc(F)cc32)c(C)c1C(=O)NC[C@H](O)CN1CCOCC1"
Result: > 10 µM

Q: Fill in reported TGI for this entry: "CCOC(=O)C(=O)Nc1c(N(CC)CC)n2ccccc2nc1=O"
Result: > 100 µM

Q: Answer with the recorded TGI for the compound listed here: "C=C[C@@]1(C)CC(=O)[C@]2(O)[C@@]3(C)[C@@H](OC(C)=O)CCC(C)(C)[C@@H]3[C@H](OC(C)=O)[C@H](OC(C)=O)[C@@]2(C)O1"
Result: > 100 µM

Q: Give recorded TGI. "O=c1cc(-c2ccccc2)nc2n1CCN2Cc1ccccc1"
Result: > 100 µM

Q: Fill in TGI for record "S=C(N/N=C/c1ccccn1)Nc1ccccn1"
Result: > 100 µM

Q: Tell me measured TGI for "CNC(=O)CCNC(=O)CCC(=O)OC" please.
Result: > 100 µM

###

# Test system: OVCAR-8 ovarian
# test name: NCI tumour cell line growth inhibition, 48 h
Measured TGI by item

Below, each entry is followed by its recorded TGI result.
[[record]]
compound = "CCOC(=O)Oc1c(OC)cc(C(=O)O[C@@H]2C[C@@H]3CN4CCc5c([nH]c6cc(OC)ccc56)[C@H]4C[C@@H]3[C@H](C(=O)OC)[C@H]2OC)cc1OC"
assay_metric = "TGI"
result_value = "21.1 µM"

[[record]]
compound = "CC(c1cccc2ccccc12)/[N+]([O-])=C/c1ccccc1 (stereo not given)"
assay_metric = "TGI"
result_value = "> 100 µM"

[[record]]
compound = "O=C1CC2(CCC(O)(c3ccc(Cl)cc3)C(C(=O)c3ccc(Cl)cc3)C2)C(=O)c2ccccc2N1 (stereo not given)"
assay_metric = "TGI"
result_value = "> 62.4 µM"

[[record]]
compound = "CN(C)CCO/N=C1/C=C2CC[C@H]3[C@@H]4CC[C@H](O)[C@@]4(C)CC[C@@H]3[C@@]2(C)CC1"
assay_metric = "TGI"
result_value = "45.5 µM"

[[record]]
compound = "COc1ccc2c3ccc4c(c3n(C)c2c1)C(=O)c1ccccc1C4=O"
assay_metric = "TGI"
result_value = "> 100 µM"

[[record]]
compound = "O=C(Oc1ccc(CCl)cc1)c1ccccc1"
assay_metric = "TGI"
result_value = "0.291 µM"


Consider the record given below.
Q: Using the record for "CCOC(=O)c1ccc(C(=O)/C(C#N)=C2\CCCN2)[nH]1" , state its measured TGI.
Result: > 100 µM

###

# System: HCT-116 colon
# test name: NCI tumour cell line growth inhibition, 48 h
assay metric: TGI (µM)
Kindly provide the numeric value in µM only, without the unit symbol.

[[record]]
smiles_input = "O=[N+]([O-])/C=C/c1c[nH]c2ccccc12"
tested_target = "HCT-116 colon"
measurement_unit = "µM"
result_value = 11.3

[[record]]
smiles_input = "S=C1N(c2ccc(Cl)cc2)C2=C(N=Nc3ccccc3)C(=Nc3ccccc3S2)N1c1ccccn1"
tested_target = "HCT-116 colon"
measurement_unit = "µM"
result_value = 27.1

[[record]]
smiles_input = "N#CS/C(Cl)=C(/C(Cl)=C(Cl)Cl)[N+](=O)[O-]"
tested_target = "HCT-116 colon"
measurement_unit = "µM"
result_value = 75.7


Q: Respond only with TGI recorded for "Cc1cc2c(s1)C(=O)c1sccc1C2=O"
Result: 2.46

Q: State, in one line, measured TGI of "CCOC(CN=c1nc(N(C)C)ss1)OCC"
Result: 31.2
